Origin of values: ChEMBL document CHEMBL1961873

target: MAP kinase-interacting serine/threonine-protein kinase 1 (Homo sapiens); settings: at 0.1 µM
Description: GSK_PKIS: MKNK1 mean inhibition at 0.1 uM [Nanosyn]
OUTCOME_MEASURE: inhibition (%)

INSERT INTO assay_data (entry_smiles, study_system, measured_result) VALUES
  ('CN(C)C(=O)O[C@@H]1CN[C@@H](C#Cc2cc3ncnc(Nc4ccc(OCc5cccc(F)c5)c(Cl)c4)c3s2)C1', 'MAP kinase-interacting serine/threonine-protein kinase 1 (Homo sapiens)', 0.76),
  ('CCOc1nccc2c1nc(-c1nonc1N)n2CC', 'MAP kinase-interacting serine/threonine-protein kinase 1 (Homo sapiens)', 3.48),
  ('COc1cc(/C=N/Nc2ncnc3c2cnn3C(C)C)ccc1O', 'MAP kinase-interacting serine/threonine-protein kinase 1 (Homo sapiens)', 1.07),
  ('COc1ccc(-c2nn3ncccc3c2-c2ccnc(Nc3cccc(C(F)(F)F)c3)n2)cc1', 'MAP kinase-interacting serine/threonine-protein kinase 1 (Homo sapiens)', 1.88),
  ('NS(=O)(=O)c1ccc(-c2cc3ccncc3cc2OCc2ccccc2)cc1', 'MAP kinase-interacting serine/threonine-protein kinase 1 (Homo sapiens)', 4.45),
  ('c1ccc(Nc2ncc(-c3ccccc3)o2)cc1', 'MAP kinase-interacting serine/threonine-protein kinase 1 (Homo sapiens)', 1.77),
  ('CCn1c(-c2nonc2N)nc2c(C#CC(C)(C)O)nc(OCCNC)cc21', 'MAP kinase-interacting serine/threonine-protein kinase 1 (Homo sapiens)', 1.63),
  ('Cc1ccc(O)cc1Nc1ccnc2ccc(S(C)(=O)=O)cc12', 'MAP kinase-interacting serine/threonine-protein kinase 1 (Homo sapiens)', 3.85),
  ('Cc1ccc(NC(=O)CC2CC2)cc1-c1ccc(C(=O)NCC2CC2)cc1', 'MAP kinase-interacting serine/threonine-protein kinase 1 (Homo sapiens)', 2.59),
  ('CCS(=O)(=O)c1ccc(OC)c(Nc2ncc(-c3cccc(OC)c3)o2)c1', 'MAP kinase-interacting serine/threonine-protein kinase 1 (Homo sapiens)', 4.25);

====

The following molecules are listed with their measured inhibition values.
target: Tyrosine-protein kinase Fyn (Homo sapiens); details: at 0.1 µM
Description: GSK_PKIS: FYN mean inhibition at 0.1 uM [Nanosyn]
OUTCOME_MEASURE: inhibition (%)

INSERT INTO results (entry_smiles, measured_result) VALUES
  ('COC(=O)c1cncc(/C=C/c2c(C)cc(O)cc2C)c1', 3.73),
  ('Nc1nccc(-c2c(-c3ccc(F)cc3)ncn2CCCN2CCOCC2)n1', 0.86),
  ('Cc1cc(O)cc(C)c1/C=C/c1cncc(C(=O)N(C)C)c1', 3.23),
  ('CN(C)C(=O)O[C@H]1CN[C@H](C#Cc2cc3ncnc(Nc4ccc(OCc5cccc(F)c5)c(Cl)c4)c3s2)C1', -0.77),
  ('N#Cc1c(NC(=O)c2ccccc2F)sc2c1CCCC2', 1.38),
  ('CS(=O)(=O)Nc1cccc(-c2ccc3c(NC(=O)C4CC4)n[nH]c3c2)c1', 2.53),
  ('COC(=O)Nc1nc2cc(Oc3ccc(NC(=O)Nc4cccc(Br)c4)cc3)ccc2[nH]1', 3.15),
  ('COc1cccc(-n2ncc3c(N/N=C/c4ccc(C)cc4)ncnc32)c1', 5.39),
  ('CCn1c(-c2nonc2N)nc2c(C#CC(C)(C)O)nc(OCCNC)cc21', 1.14),
  ('COc1cc2ncnc(Nc3ccc(C)c(O)c3)c2cc1OC', 12.8),
  ('FC(F)(F)c1ccc(-c2nn3ncccc3c2-c2ccnc(Nc3ccc4c(c3)OCCO4)n2)cc1', 2.65),
  ('NS(=O)(=O)c1ccc(Nc2cc(-c3cccc(O)c3)n[nH]2)cc1', 4.67),
  ('CCOc1nccc2c1nc(-c1nonc1N)n2CC', 0.3),
  ('O=C1Nc2ccc(-c3cccnc3)cc2C1=Cc1cc(Br)c(O)c(Br)c1', 2.17),
  ('CCS(=O)(=O)c1ccc(OC)c(Nc2ncc(-c3cccc(OC)c3)o2)c1', 27.6),
  ('CCS(=O)(=O)c1ccc(OC)c(Nc2nccc(N(C)c3ccc4c(C)n[nH]c4c3)n2)c1', 39),
  ('Cc1nc(-c2ccccc2)n2nc(NCCCN3CCOCC3)ncc12', 1.73),
  ('Cc1ccc(C(=O)NC2CC2)cc1-c1ccc2[nH]ncc2c1', -0.87),
  ('NS(=O)(=O)c1ccc(N/N=C2\C(=O)Nc3ccc(Cl)cc32)cc1', 0.23),
  ('COc1cc(Nc2nccc(-c3cnn4ncccc34)n2)cc(OC)c1', 7.87),
  ('COc1ccc(-c2nn3ncccc3c2-c2ccnc(Nc3cccc(C(F)(F)F)c3)n2)cc1', 1.38),
  ('Cc1ccc(Nc2ccnc(Nc3cccc(C(N)=O)c3)n2)cc1O', 77.2),
  ('Nc1nccc(C#Cc2cncnc2Nc2ccc(OCc3cccc(F)c3)c(Cl)c2)n1', -0.31),
  ('COC(=O)c1ccc2c(c1)C(=Cc1cc(Br)c(O)c(Br)c1)C(=O)N2', 5.27);

====

biological target: Vascular endothelial growth factor receptor 3 (Homo sapiens) (UniProt P35916); details: at 0.1 µM
Sequence (P35916 whole entry): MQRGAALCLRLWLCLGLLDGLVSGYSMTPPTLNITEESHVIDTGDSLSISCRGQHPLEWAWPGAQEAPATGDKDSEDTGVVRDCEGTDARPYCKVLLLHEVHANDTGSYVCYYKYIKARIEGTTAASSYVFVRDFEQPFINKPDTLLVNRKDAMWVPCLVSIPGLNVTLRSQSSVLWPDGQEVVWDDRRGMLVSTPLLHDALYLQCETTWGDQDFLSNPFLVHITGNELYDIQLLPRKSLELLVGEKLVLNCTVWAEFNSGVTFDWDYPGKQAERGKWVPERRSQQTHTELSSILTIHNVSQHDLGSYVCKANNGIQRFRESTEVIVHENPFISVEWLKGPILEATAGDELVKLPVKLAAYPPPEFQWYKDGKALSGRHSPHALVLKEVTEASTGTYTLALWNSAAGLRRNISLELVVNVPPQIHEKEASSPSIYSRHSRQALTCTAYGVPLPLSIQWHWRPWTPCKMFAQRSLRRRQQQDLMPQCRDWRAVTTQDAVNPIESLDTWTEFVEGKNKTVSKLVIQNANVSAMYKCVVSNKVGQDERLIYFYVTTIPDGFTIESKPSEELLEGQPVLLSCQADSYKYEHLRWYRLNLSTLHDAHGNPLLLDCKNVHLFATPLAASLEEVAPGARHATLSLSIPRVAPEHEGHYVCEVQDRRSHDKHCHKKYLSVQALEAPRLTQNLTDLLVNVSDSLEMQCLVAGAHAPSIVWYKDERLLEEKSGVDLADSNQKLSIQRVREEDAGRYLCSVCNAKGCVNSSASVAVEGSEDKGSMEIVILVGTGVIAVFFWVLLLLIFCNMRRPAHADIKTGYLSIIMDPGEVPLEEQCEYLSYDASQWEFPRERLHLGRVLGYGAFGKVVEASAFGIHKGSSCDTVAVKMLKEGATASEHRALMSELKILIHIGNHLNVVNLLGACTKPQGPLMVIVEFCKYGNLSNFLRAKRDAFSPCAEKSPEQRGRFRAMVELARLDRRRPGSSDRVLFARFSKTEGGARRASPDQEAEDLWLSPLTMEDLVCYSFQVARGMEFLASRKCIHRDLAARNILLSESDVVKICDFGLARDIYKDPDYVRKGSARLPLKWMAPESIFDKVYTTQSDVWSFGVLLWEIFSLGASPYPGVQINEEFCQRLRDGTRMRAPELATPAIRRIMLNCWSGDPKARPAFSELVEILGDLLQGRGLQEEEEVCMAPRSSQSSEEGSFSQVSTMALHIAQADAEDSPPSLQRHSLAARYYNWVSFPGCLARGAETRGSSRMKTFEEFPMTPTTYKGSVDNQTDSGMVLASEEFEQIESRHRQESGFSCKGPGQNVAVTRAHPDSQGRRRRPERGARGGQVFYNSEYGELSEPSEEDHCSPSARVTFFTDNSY
Description: GSK_PKIS: FLT4 mean inhibition at 0.1 uM [Nanosyn]
OUTCOME_MEASURE: inhibition (%)

INSERT INTO results (compound, quantity_unit, measured_result) VALUES
  ('c1ccc(Cc2nc3ccc(Nc4ncnc5ccccc45)cc3[nH]2)cc1', '%', 0.79),
  ('CN(C)CCCn1c(-c2nonc2N)nc2cnccc21', '%', 15.4),
  ('CC(C)c1ccc2c(c1)NC(=O)/C2=N/Nc1ccc(S(N)(=O)=O)cc1', '%', 1.38),
  ('COC(=O)c1cncc(/C=C/c2c(C)cc(O)cc2C)c1', '%', 4.3),
  ('[O-][S+]1CCN(Cc2ccc(-c3ccc4ncnc(Nc5ccc(OCc6ccccc6)c(Cl)c5)c4c3)o2)CC1', '%', 7.2),
  ('Cc1ccc(NC(=O)CC2CC2)cc1-c1ccc(C(=O)NCC2CC2)cc1', '%', 0.87),
  ('ON=C1CCc2cc(-c3nc(C4CCNCC4)[nH]c3-c3ccncc3)ccc21', '%', -0.02),
  ('COC(=O)c1ccc2c(c1)C(=Cc1cc(Br)c(O)c(Br)c1)C(=O)N2', '%', 1.46),
  ('Cc1ccc(Nc2ccnc(Nc3cccc(C(N)=O)c3)n2)cc1O', '%', 64),
  ('CCOc1nccc2c1nc(-c1nonc1N)n2CC', '%', 12.8),
  ('COc1cc(/C=N/Nc2ncnc3c2cnn3C(C)C)ccc1O', '%', 13.8),
  ('CN(C)c1cc2c(Nc3ccc4c(cnn4Cc4ccccc4)c3)ncnc2cn1', '%', 2.71),
  ('COc1cccc(-n2ncc3c(N/N=C/c4ccc(S(C)(=O)=O)cc4)ncnc32)c1', '%', -2.95),
  ('O=C(Nc1ccc(Oc2ccc3[nH]c(NC(=O)c4ccco4)nc3c2)cc1)Nc1cc(C(F)(F)F)ccc1F', '%', -7.79),
  ('NS(=O)(=O)c1ccc(Nc2cc(-c3cccc(O)c3)n[nH]2)cc1', '%', 6.76),
  ('COc1cccc(-n2nc(C)c3c(N/N=C(\C)c4ccncc4)ncnc32)c1', '%', 1.67),
  ('Cc1nc(-c2ccccc2)n2nc(NCCCN3CCOCC3)ncc12', '%', 2.75),
  ('CCCN1CCCC(c2ccc(Nc3nc(Nc4cc(F)ccc4C(N)=O)c4cc[nH]c4n3)c(OC)c2)C1 (stereo unspecified)', '%', -0.55),
  ('O=C1Nc2ccccc2/C1=C/Nc1ccc2[nH]c(=O)[nH]c2c1', '%', 4.3),
  ('COc1ccc(-c2nn3ncccc3c2-c2ccnc(Nc3cccc(C(F)(F)F)c3)n2)cc1', '%', 1.62),
  ('CCS(=O)(=O)c1ccc(OC)c(Nc2ncc(-c3cccc(OC)c3)o2)c1', '%', 27.6);

====

target: MAP/microtubule affinity-regulating kinase 3 (Homo sapiens); conditions: at 0.1 µM;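 note: mean percent inhibition of MARK3 kinase activity, measured within the GSK PKIS screening panel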
OUTCOME_MEASURE: inhibition (%)

INSERT INTO results (entry_smiles, study_system, measured_result) VALUES
  ('CN(c1ccc(NC(=O)Nc2ccc(OC(F)(F)F)cc2)cc1)c1ccnc(Nc2cccc(S(N)(=O)=O)c2)n1', 'MAP/microtubule affinity-regulating kinase 3 (Homo sapiens)', 1.62),
  ('N#Cc1c(NC(=O)c2ccccc2F)sc2c1CCCC2', 'MAP/microtubule affinity-regulating kinase 3 (Homo sapiens)', -2.32),
  ('COc1cc2ncnc(Nc3ccc(C)c(O)c3)c2cc1OC', 'MAP/microtubule affinity-regulating kinase 3 (Homo sapiens)', 4.06),
  ('CS(=O)(=O)Nc1cccc(-c2ccc3c(NC(=O)C4CC4)n[nH]c3c2)c1', 'MAP/microtubule affinity-regulating kinase 3 (Homo sapiens)', 1.49),
  ('NS(=O)(=O)c1ccc(N/N=C2\C(=O)Nc3ccc(Cl)cc32)cc1', 'MAP/microtubule affinity-regulating kinase 3 (Homo sapiens)', 4.4),
  ('COc1cccc(-n2ncc3c(N/N=C/c4ccc(C)cc4)ncnc32)c1', 'MAP/microtubule affinity-regulating kinase 3 (Homo sapiens)', 2.69),
  ('Cc1cc(Cl)cc2c1NC(=O)C2=NNc1ccc(S(N)(=O)=O)cc1', 'MAP/microtubule affinity-regulating kinase 3 (Homo sapiens)', 3.64),
  ('Cc1ccc2c(c1)/C(=N/Nc1ccc(S(N)(=O)=O)cc1)C(=O)N2', 'MAP/microtubule affinity-regulating kinase 3 (Homo sapiens)', -0.22),
  ('[O-][S+]1CCN(Cc2ccc(-c3ccc4ncnc(Nc5ccc(OCc6ccccc6)c(Cl)c5)c4c3)o2)CC1', 'MAP/microtubule affinity-regulating kinase 3 (Homo sapiens)', -0.92),
  ('COc1cccc(-n2nc(C)c3c(N/N=C(\C)c4ccncc4)ncnc32)c1', 'MAP/microtubule affinity-regulating kinase 3 (Homo sapiens)', -0.48);
